Test system: batrachotoxin (BTX) binding site of the sodium channel
Assay: Affinity to the batrachotoxin (BTX) binding site of the sodium channel
Conditions: rat cerebrocortex synaptosomes, [3H]-batrachotoxinin A20 α-benzoate 10 nM; test concentration not given
RECORDED METRIC: BTX Inhibition
API doc: respond with a numeric literal and nothing else, no unit.

Here are 5 compounds together with their reported answers.
{"COMPOUND": "CSCCC1NC2(CCN(C(=O)Nc3ccccc3)CC2)N(Cc2ccccc2C#N)C1=O (centres unmarked)", "BTX Inhibition": 30}
{"COMPOUND": "CN1C(=O)C(Cc2ccccc2)NC12CCN(C(=O)NC1CCCCC1)CC2 (centres unmarked)", "BTX Inhibition": 56}
{"COMPOUND": "O=C(NCc1ccc(Cl)c(Cl)c1)N1CCC2(CC1)NC(Cc1ccccc1)C(=O)N2Cc1ccccc1F (centres unmarked)", "BTX Inhibition": 85}
{"COMPOUND": "Cc1cccc(NC(=S)N2CCC3(CC2)NC(Cc2ccccc2)C(=O)N3Cc2ccccc2F)c1 (centres unmarked)", "BTX Inhibition": 85}
{"COMPOUND": "CSCCC1NC2(CCN(C(=O)Nc3cccc(F)c3)CC2)N(Cc2ccc3ccccc3c2)C1=O (centres unmarked)", "BTX Inhibition": 78}

Entry under review: Cc1cc(S(=O)(=O)N2CCC3(CC2)NC(CC(C)C)C(=O)N3Cc2ccccc2)c(C)cc1Cl (centres unmarked) . Reported BTX Inhibition?
59

Returns the measured BTX Inhibition for the input compound. Input: COC(=O)c1ccc(CN2C(=O)CNC23CCN(S(=O)(=O)Cc2ccccc2)CC3)cc1
31

What measured BTX Inhibition goes with O=C1C(Cc2ccccc2)NC2(CCN(C(=S)Nc3c(Cl)cccc3Cl)CC2)N1Cc1ccccc1F (centres unmarked) ?
86

// provenance: patent US7560468B2
